- Target Or Test System: PTHR1 receptor
- Sequence (P25961 whole entry): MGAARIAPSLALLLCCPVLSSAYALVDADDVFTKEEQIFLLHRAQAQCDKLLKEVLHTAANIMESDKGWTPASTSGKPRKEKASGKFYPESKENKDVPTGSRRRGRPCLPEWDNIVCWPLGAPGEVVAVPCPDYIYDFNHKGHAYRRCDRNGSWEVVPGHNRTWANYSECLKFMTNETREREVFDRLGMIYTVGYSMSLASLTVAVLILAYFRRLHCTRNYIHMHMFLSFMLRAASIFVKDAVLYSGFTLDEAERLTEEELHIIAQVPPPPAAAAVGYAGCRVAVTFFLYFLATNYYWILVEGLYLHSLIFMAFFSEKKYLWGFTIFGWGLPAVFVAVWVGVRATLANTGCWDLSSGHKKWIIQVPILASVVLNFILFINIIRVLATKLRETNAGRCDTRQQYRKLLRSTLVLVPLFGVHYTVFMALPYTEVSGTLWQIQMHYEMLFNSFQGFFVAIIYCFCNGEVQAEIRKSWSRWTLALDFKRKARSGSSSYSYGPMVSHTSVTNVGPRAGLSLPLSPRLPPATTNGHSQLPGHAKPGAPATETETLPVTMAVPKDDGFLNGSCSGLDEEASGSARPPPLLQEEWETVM
* marks the point of attachment. Palmitoyl = CCCCCCCCCCCCCCCC(=O)*
Quantity Kind: Inhibition of Maximal Response (%)
Give bare numbers, in %.

Binder	Display Unit	Inhibition of Maximal Response
Palmitoyl-TNAGRSATRQQYRKLL-NH2 (SMILES CCCCCCCCCCCCCCCC(=O)N[C@H](C(=O)N[C@@H](CC(N)=O)C(=O)N[C@@H](C)C(=O)NCC(=O)N[C@@H](CCCNC(=N)N)C(=O)N[C@@H](CO)C(=O)N[C@@H](C)C(=O)N[C@H](C(=O)N[C@@H](CCCNC(=N)N)C(=O)N[C@@H](CCC(N)=O)C(=O)N[C@@H](CCC(N)=O)C(=O)N[C@@H](Cc1ccc(O)cc1)C(=O)N[C@@H](CCCNC(=N)N)C(=O)N[C@@H](CCCCN)C(=O)N[C@@H](CC(C)C)C(=O)N[C@@H](CC(C)C)C(N)=O)[C@@H](C)O)[C@@H](C)O) [Compound 82]	%	-21.6
Palmitoyl-WTLALDFKRKAR-NH2 (SMILES CCCCCCCCCCCCCCCC(=O)N[C@@H](Cc1c[nH]c2ccccc12)C(=O)N[C@H](C(=O)N[C@@H](CC(C)C)C(=O)N[C@@H](C)C(=O)N[C@@H](CC(C)C)C(=O)N[C@@H](CC(=O)O)C(=O)N[C@@H](Cc1ccccc1)C(=O)N[C@@H](CCCCN)C(=O)N[C@@H](CCCNC(=N)N)C(=O)N[C@@H](CCCCN)C(=O)N[C@@H](C)C(=O)N[C@@H](CCCNC(=N)N)C(N)=O)[C@@H](C)O) [Compound 103]	%	-7.3
Palmitoyl-TNAGRSDTRAQYRKLL-NH2 (SMILES CCCCCCCCCCCCCCCC(=O)N[C@H](C(=O)N[C@@H](CC(N)=O)C(=O)N[C@@H](C)C(=O)NCC(=O)N[C@@H](CCCNC(=N)N)C(=O)N[C@@H](CO)C(=O)N[C@@H](CC(=O)O)C(=O)N[C@H](C(=O)N[C@@H](CCCNC(=N)N)C(=O)N[C@@H](C)C(=O)N[C@@H](CCC(N)=O)C(=O)N[C@@H](Cc1ccc(O)cc1)C(=O)N[C@@H](CCCNC(=N)N)C(=O)N[C@@H](CCCCN)C(=O)N[C@@H](CC(C)C)C(=O)N[C@@H](CC(C)C)C(N)=O)[C@@H](C)O)[C@@H](C)O) [Compound 81]	%	-20.8

// next entry
Exam item: Give recorded Inhibition of Maximal Response. Palmitoyl-DTRQQYRKLLKSTL-NH2 (SMILES CCCCCCCCCCCCCCCC(=O)N[C@@H](CC(=O)O)C(=O)N[C@H](C(=O)N[C@@H](CCCNC(=N)N)C(=O)N[C@@H](CCC(N)=O)C(=O)N[C@@H](CCC(N)=O)C(=O)N[C@@H](Cc1ccc(O)cc1)C(=O)N[C@@H](CCCNC(=N)N)C(=O)N[C@@H](CCCCN)C(=O)N[C@@H](CC(C)C)C(=O)N[C@@H](CC(C)C)C(=O)N[C@@H](CCCCN)C(=O)N[C@@H](CO)C(=O)N[C@H](C(=O)N[C@@H](CC(C)C)C(N)=O)[C@@H](C)O)[C@@H](C)O) [Compound 56]
Marked response: -30.4
